testSystem: Shp2 (Homo sapiens (Human), UniProt Q06124)
Sequence (Q06124 205-593): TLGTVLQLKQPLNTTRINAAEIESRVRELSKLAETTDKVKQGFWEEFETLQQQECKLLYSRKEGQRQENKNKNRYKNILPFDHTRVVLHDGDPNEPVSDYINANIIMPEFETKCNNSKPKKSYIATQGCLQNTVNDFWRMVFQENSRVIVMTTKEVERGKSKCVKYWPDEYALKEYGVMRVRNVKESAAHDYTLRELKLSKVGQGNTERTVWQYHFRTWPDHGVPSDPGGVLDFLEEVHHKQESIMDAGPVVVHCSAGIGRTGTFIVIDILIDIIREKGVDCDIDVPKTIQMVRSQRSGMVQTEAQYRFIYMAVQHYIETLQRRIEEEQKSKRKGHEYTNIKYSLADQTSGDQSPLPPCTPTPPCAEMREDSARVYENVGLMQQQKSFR
experimentalDetails: PTP activity assay (DiFMUP substrate) with GST-Shp2
Format: biochemical
conditionInfo: concentration not given
assayEndpoint: % PTP activity

compound | reportedValue
O=C1Nc2ccc(S(=O)(=O)NCc3cccnc3)cc2/C1=N/Nc1ccccc1[N+](=O)[O-] [HL2-016-20] | 68 ± 8% (6)
O=C(O)c1ccc2cc(C(=O)Nc3ccccc3)ccc2c1 [RPM183] | 79 ± 16 (7) %
O=C1Nc2ccc(S(=O)(=O)O)cc2/C1=N/Nc1ccccc1[N+](=O)[O-] [HL1-056] | 86 ± 3% (6)
O=C1Nc2ccccc2/C1=N/Nc1ccccc1Cl [HL1-050-1] | 99 ± 2% (3)
CC(C)CNS(=O)(=O)c1ccc2c(c1)/C(=N/Nc1ccccc1Cl)C(=O)N2 [HL2-016-10] | 36 ± 17 (12) %
